Cited source: patent US7982043B2

Each entry below lists one item and its recorded IC50 value.
Tested on: SW620 cells
Assay: Cell proliferation assay (SRB), SW620
Type: cell-based
Conditions: Homo sapiens, SW-620, 48 h; EGFR −, Her-2 −; 2 days, SRB; read-out: CELL IC50 SW620
QUANTITY: IC50 (µg/mL)

{"LINE NOTATION": "CCOc1cc2ncc(C#N)c(Nc3ccc(Oc4ccncc4)c(Cl)c3)c2cc1[N+](=O)[O-]", "TARGET OR SYSTEM": "SW620 cells", "UNITS LABEL": "µg/mL", "COMPARISON SIGN": ">", "OBS VALUE": 5}
{"LINE NOTATION": "COc1cc2ncc(C#N)c(Nc3ccc(Sc4nc(-c5ccccc5)cs4)c(Cl)c3)c2cc1NC(=O)/C=C/CN(C)C", "TARGET OR SYSTEM": "SW620 cells", "UNITS LABEL": "µg/mL", "COMPARISON SIGN": "=", "OBS VALUE": 0.57}
{"LINE NOTATION": "COCCN(C)C/C=C/C(=O)Nc1cc2c(Nc3ccc(Sc4nccs4)c(Cl)c3)c(C#N)cnc2cc1OC", "TARGET OR SYSTEM": "SW620 cells", "UNITS LABEL": "µg/mL", "COMPARISON SIGN": "=", "OBS VALUE": 0.4}
{"LINE NOTATION": "CCOc1cc2ncc(C#N)c(Nc3ccc(Cn4ccnc4)c(Cl)c3)c2cc1N", "TARGET OR SYSTEM": "SW620 cells", "UNITS LABEL": "µg/mL", "COMPARISON SIGN": ">", "OBS VALUE": 5}
{"LINE NOTATION": "CCOc1cc2ncc(C#N)c(Nc3ccc(Oc4ccncc4)c(Cl)c3)c2cc1N", "TARGET OR SYSTEM": "SW620 cells", "UNITS LABEL": "µg/mL", "COMPARISON SIGN": ">", "OBS VALUE": 5}
{"LINE NOTATION": "COc1cc2ncc(C#N)c(Nc3ccc(Sc4ncc(-c5ccccc5)s4)c(Cl)c3)c2cc1NC(=O)/C=C/CN(C)C", "TARGET OR SYSTEM": "SW620 cells", "UNITS LABEL": "µg/mL", "COMPARISON SIGN": "=", "OBS VALUE": 0.5}
{"LINE NOTATION": "CCOc1cc2ncc(C#N)c(Nc3ccc(OCc4cccs4)c(Cl)c3)c2cc1NC(=O)/C=C/CN(C)C", "TARGET OR SYSTEM": "SW620 cells", "UNITS LABEL": "µg/mL", "COMPARISON SIGN": "=", "OBS VALUE": 0.25}
